Please go through the items and note down their Mean % WT Binding.
- testSystem: human CD33 L23M (human, UniProt P20138 18-364)
- Sequence (P20138 18-364 L23M limits assumed): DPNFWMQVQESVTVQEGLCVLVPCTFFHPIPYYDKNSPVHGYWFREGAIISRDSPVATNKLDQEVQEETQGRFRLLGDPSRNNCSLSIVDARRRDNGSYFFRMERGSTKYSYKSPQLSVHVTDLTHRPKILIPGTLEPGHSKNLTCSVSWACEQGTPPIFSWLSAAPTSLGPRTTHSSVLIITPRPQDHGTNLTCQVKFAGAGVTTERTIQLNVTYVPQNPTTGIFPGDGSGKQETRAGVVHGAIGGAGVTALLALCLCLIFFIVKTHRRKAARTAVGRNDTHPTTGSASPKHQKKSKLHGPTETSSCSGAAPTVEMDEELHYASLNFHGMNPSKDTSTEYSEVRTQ
- methodDescription: flow cytometry, mutant on cells, IgG
Give bare numbers, in % WT binding.

Refmab #1 (antibody, human IgG1, V domains shown, Tested in IgG format; human IgG1 (Absolute Antibody hP67.6, Cat. No. Ab00283-10.0); also called hP67.6) VH: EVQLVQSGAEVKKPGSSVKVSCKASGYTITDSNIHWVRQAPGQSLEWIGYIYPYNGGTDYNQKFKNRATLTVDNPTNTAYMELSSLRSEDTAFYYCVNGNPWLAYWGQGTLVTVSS VL: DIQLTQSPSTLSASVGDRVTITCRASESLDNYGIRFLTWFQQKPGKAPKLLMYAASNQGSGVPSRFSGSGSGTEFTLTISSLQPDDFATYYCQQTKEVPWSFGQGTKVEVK | 94.4
Refmab #2 (antibody, human IgG1, V domains shown, Tested in IgG format; human IgG1 Fc silent (PG-LALA)) VH: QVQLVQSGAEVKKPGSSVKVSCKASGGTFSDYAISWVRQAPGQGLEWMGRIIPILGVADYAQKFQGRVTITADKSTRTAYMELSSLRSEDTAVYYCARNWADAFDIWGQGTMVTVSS VL: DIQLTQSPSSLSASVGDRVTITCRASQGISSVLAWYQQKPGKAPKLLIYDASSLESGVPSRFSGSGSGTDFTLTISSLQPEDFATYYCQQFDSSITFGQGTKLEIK | 107
Refmab #3 (antibody, human IgG1, V domains shown, Tested in IgG format; human IgG1 Fc silent (PG-LALA)) VH: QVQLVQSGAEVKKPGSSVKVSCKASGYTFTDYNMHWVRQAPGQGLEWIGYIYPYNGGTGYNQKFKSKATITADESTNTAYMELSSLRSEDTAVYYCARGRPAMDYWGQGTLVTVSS VL: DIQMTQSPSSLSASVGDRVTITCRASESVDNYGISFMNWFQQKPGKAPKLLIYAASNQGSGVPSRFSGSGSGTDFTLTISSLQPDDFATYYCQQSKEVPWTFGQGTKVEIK | 98.1

Now turn to the next binder.
The binder listed as Refmab #4 (antibody, human IgG1, V domains shown, Tested in IgG format; human IgG1 Fc silent (PG-LALA)) VH: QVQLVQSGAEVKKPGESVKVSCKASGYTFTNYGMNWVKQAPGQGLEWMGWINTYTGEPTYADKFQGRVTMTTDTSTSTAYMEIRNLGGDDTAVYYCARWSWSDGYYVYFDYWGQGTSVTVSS VL: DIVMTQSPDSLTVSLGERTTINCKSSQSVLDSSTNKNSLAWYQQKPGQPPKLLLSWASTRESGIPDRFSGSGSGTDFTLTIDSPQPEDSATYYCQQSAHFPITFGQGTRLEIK shows Mean % WT Binding equal to 92.7
